Assay: qHTS assay to identify small molecule antagonists of the retinoid acid receptor (RAR) signaling pathway - cell viability counter screen (AID 1159551); further: nearly all actives have a fitted effect of over 35% in size
Conditions: C3RL4 cells viability, ATP luminescence (CellTiter-Glo), 6 h; series mostly up to 92.4 µM
Results filed as inconclusive are left out. The source made the active and inactive calls. The call rests on the fitted dose curve; in most records, active means well fitted cell-killing curve with a large enough effect in the repeat runs; inconclusive means weak or mixed curves, or effect the other way; inactive means flat fitted curve, though single readings scatter.
Returns: one label drawn from active, inactive

Solved entries:
CCOc1ccccc1C(N)=O = inactive
CC(=O)CC(=O)Nc1ccc2[nH]c(=O)[nH]c2c1 = inactive
CCN(CC)c1ccc2c(C)cc(=O)oc2c1 = inactive
CCN(CC)C(=O)Nc1ccc(OCC(O)CNC(C)(C)C)c(C(C)=O)c1 (stereo not drawn) = inactive
C=C(C)C(=O)O = inactive

Okay, now this compound:
Prompt line: Check the results log: what was the call for COC(=O)[C@H]1[C@H]2C[C@@H]3c4[nH]c5cc(OC)ccc5c4CCN3C[C@H]2C[C@@H](OC(=O)c2cc(OC)c(OC)c(OC)c2)[C@@H]1OC ?
Response line: inactive
